The reported numbers originate from paper PMC9458059.

- testedSystem: UniProtKB P00918
- test: CA inhibition by the esterase assay, hCA II
- protocolConditions: human recombinant enzyme, 4-nitrophenylacetate as substrate
measurementType: IC50 (µM)

# compound, measurementType, scaleUnit, censorSymbol, result
records = [
    ("Cc1cc(=O)oc2cc(OCc3cn([C@H]4O[C@@H](C)[C@H](O)[C@@H](O)[C@H]4O)nn3)ccc12 [Compound 10o]", "IC50", "µM", "=", 32.1),
    ("Cc1cc(=O)oc2cc(O)ccc12 [4-Methylumbelliferone, 4-methyl-7-hydroxy coumarin, reference compound]", "IC50", "µM", ">", 100),
    ("Cc1cc(=O)oc2cc(OCc3cn([C@@H]4O[C@H](CO)[C@H](O)[C@H](O)[C@H]4O)nn3)ccc12 [Compound 10j]", "IC50", "µM", "=", 16.1),
    ("Cc1cc(=O)oc2cc(OCc3cn([C@@H]4O[C@H](CO)[C@@H](O)[C@H]4O)nn3)ccc12 [Compound 10p]", "IC50", "µM", "=", 22.4),
    ("O=c1ccc2ccc(OCc3cn([C@@H]4OC[C@@H](O)[C@H](O)[C@H]4O)nn3)cc2o1 [Compound 10e]", "IC50", "µM", "=", 21),
    ("Cc1cc(=O)oc2cc(OCc3cn([C@@H]4OC[C@H](O)[C@H](O)[C@H]4O)nn3)ccc12 [Compound 10n]", "IC50", "µM", "=", 12.2),
    ("O=c1ccc2ccc(OCc3cn([C@@H]4O[C@H](CO)[C@@H](O)[C@H](O)[C@@H]4O)nn3)cc2o1 [Compound 10c]", "IC50", "µM", "=", 24),
]

###

- testedSystem: hCA IX (Homo sapiens)
- Construct: purchased
- test: CA inhibition by the esterase assay, hCA IX
- Format: biochemical
- protocolConditions: ratio of IC50 values

# compound, Selectivity Ratio hCA II/hCA IX
data = [
    ("Cc1cc(=O)oc2cc(OCc3cn([C@@H]4OC[C@@H](O)[C@H](O)[C@H]4O)nn3)ccc12 [Compound 10m]", 337),
    ("N[C@@H]1[C@@H](O)[C@H](O)[C@@H](CO)O[C@H]1n1cc(COc2ccc3ccc(=O)oc3c2)nn1 [Compound 10d]", 575),
    ("O=c1ccc2ccc(OCc3cn([C@@H]4O[C@H](CO)[C@@H](O)[C@H](O)[C@H]4O)nn3)cc2o1 [Compound 10a]", 1955),
    ("Cc1cc(=O)oc2cc(OCc3cn([C@@H]4O[C@H](CO)[C@@H](O)[C@H](O)[C@@H]4O)nn3)ccc12 [Compound 10k]", 548),
    ("Cc1cc(=O)oc2cc(OCc3cn([C@@H]4O[C@H](CO)[C@@H](O)[C@H](O)[C@H]4O)nn3)ccc12 [Compound 10i]", 167),
    ("Cc1cc(=O)oc2cc(OCc3cn([C@@H]4O[C@H](CO)[C@@H](O)[C@H](O)[C@H]4N)nn3)ccc12 [Compound 10l]", 981),
    ("Cc1cc(=O)oc2cc(OCc3cn([C@H]4O[C@@H](C)[C@H](O)[C@@H](O)[C@H]4O)nn3)ccc12 [Compound 10o]", 334),
]
